# target-or-system: ALK tyrosine kinase receptor (Homo sapiens, UniProt Q9UM73)
# assay-overview: Inhibition of ALK by time-resolved fluorescence assay
# Sequence (Q9UM73 whole entry): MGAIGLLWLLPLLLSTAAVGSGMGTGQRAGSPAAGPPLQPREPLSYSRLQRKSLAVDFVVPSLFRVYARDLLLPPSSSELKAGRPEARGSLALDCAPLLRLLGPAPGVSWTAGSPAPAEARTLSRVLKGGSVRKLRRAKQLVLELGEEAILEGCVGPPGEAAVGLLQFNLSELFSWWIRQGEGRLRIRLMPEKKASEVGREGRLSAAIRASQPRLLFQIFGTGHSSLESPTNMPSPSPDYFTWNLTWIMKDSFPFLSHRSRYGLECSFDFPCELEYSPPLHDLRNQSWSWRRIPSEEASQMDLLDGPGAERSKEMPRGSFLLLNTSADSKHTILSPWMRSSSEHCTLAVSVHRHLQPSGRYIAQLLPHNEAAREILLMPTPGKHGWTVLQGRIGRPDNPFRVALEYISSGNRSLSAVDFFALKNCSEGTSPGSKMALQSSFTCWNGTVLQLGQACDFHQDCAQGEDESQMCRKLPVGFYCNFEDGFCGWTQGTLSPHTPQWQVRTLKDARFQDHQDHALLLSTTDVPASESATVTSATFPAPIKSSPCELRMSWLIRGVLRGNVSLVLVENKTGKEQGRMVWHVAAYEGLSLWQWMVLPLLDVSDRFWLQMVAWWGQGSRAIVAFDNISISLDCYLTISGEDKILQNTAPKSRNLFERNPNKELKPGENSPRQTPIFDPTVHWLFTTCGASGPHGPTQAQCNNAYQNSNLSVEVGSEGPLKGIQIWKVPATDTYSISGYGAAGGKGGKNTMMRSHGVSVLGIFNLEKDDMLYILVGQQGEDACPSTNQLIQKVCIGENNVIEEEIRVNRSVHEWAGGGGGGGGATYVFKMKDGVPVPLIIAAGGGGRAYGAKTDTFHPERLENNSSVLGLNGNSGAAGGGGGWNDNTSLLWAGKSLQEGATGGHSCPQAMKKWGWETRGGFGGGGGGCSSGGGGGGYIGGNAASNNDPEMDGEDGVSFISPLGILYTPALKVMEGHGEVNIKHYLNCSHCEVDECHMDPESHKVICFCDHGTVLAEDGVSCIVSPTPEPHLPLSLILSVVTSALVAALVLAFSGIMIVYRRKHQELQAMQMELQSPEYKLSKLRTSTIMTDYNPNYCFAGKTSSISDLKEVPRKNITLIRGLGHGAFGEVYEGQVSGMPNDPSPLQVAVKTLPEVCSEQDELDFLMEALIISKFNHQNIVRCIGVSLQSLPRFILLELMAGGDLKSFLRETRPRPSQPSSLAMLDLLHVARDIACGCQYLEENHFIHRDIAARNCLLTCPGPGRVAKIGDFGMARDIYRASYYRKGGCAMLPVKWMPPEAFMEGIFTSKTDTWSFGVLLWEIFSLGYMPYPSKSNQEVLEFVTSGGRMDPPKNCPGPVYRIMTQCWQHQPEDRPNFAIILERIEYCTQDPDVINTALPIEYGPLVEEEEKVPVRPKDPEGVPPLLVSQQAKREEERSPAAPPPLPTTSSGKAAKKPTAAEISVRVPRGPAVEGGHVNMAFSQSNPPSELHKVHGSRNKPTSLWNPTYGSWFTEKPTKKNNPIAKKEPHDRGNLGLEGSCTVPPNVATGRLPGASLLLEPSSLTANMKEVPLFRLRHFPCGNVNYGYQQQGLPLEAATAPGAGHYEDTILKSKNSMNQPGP
The compounds listed here are annotated with their pIC50.
Just the number, please; pIC50 means minus log10 of the concentration in mol/L.

Below: 5 compounds and their reported pIC50.
O=C1CNc2ncc(-c3ccc(C(=O)N4CCC[C@H]4CN4CCCC4)cc3)cc2N1Cc1c(Cl)cccc1Cl ... 6.56
CN1CCN(c2ccc(-c3cnc4c(c3)N(S(=O)(=O)c3cc(F)ccc3F)CCN4)cn2)CC1 ... 6.33
O=C(c1ccc(-c2cnc3c(c2)N(Cc2c(Cl)cccc2Cl)CCN3)cc1)N1CCC[C@H]1CN1CCCC1 ... 7.57
O=C(c1ccc(-c2cnc3c(c2)N(Cc2ccccc2)CCN3)cc1)N1CCC[C@H]1CN1CCCC1 ... 6.59
O=C1CNc2ncc(-c3ccc(C(=O)N4CCC[C@H]4CN4CCCC4)cc3)cc2N1Cc1cc(F)ccc1F ... 6.84

Could you now consider this next compound?
INPUT: Fill in the recorded pIC50 for this compound, with ALK tyrosine kinase receptor (Homo sapiens, UniProt Q9UM73) as test system: O=C(c1ccc(-c2cnc3c(c2)N(Cc2cc(Cl)ccc2C(F)(F)F)CCN3)cc1)N1CCCCC1
OUTPUT: 6.92

###

# target-or-system: ALK tyrosine kinase receptor (Homo sapiens)
# assay-overview: Inhibition of ALK at 1 uM
measured-quantity: inhibition (%)
The figure you give is taken to be in %; do not add the unit.

FC(F)(F)c1ccc(Cl)cc1CN1CCNc2ncc(-c3ccnc(N4CCNCC4)c3)cc21 ... 99
CC(=O)N1CCN(c2cc(-c3cnc4c(c3)N(Cc3cc(Cl)ccc3C(F)(F)F)CCN4)ccn2)CC1 ... 98
CN1CCN(c2ccc(-c3cnc4c(c3)N(Cc3cc(Cl)ccc3C(F)(F)F)CCN4)cn2)CC1 ... 98
CN1CCN(c2ccc(-c3cnc4c(c3)N(Cc3cc(Cl)ccc3Cl)CCN4)cn2)CC1 ... 98
O=C(c1ccc(-c2cnc3c(c2)N(Cc2cc(Cl)ccc2C(F)(F)F)CCN3)cc1)N1CCC(N2CCCC2)CC1 ... 83.4
CN1CCN(c2ccc(-c3cnc4c(c3)N(Cc3c(F)ccc(F)c3Cl)CCN4)cn2)CC1 ... 97
CN1CCN(c2ccc(-c3cnc4c(c3)N(Cc3cc(F)ccc3F)CCN4)cn2)CC1 ... 96.7

Could you now consider this next compound?
INPUT: Return reported inhibition; argument: COC1CCN(C(=O)c2ccc(-c3cnc4c(c3)N(Cc3cc(Cl)ccc3C(F)(F)F)CCN4)cc2)CC1
OUTPUT: 85.6

###

inhibition by entry:
# target-or-system: Serine/threonine-protein kinase 24 (Homo sapiens)
# assay-overview: Inhibition of MST3 at 1 uM

Guide cases for inhibition, answers given:
CN1CCN(c2ccc(-c3cnc4c(c3)N(Cc3cc(F)ccc3F)CCN4)cn2)CC1 ... < 50%
FC(F)(F)c1ccc(Cl)cc1CN1CCNc2ncc(-c3ccnc(N4CCNCC4)c3)cc21 ... < 50%
CN1CCN(c2ccc(-c3cnc4c(c3)N(Cc3c(F)ccc(F)c3Cl)CCN4)cn2)CC1 ... < 50%
CN1CCN(c2ccc(-c3cnc4c(c3)N(Cc3cc(Cl)ccc3C(F)(F)F)CCN4)cn2)CC1 ... < 50%
CC(=O)N1CCN(c2cc(-c3cnc4c(c3)N(Cc3cc(Cl)ccc3C(F)(F)F)CCN4)ccn2)CC1 ... < 50%

# context switch: different compound, same inhibition
INPUT: Form field: reported inhibition of CN1CCN(c2ccc(-c3cnc4c(c3)N(Cc3cc(Cl)ccc3Cl)CCN4)cn2)CC1
OUTPUT: < 50%

###

# target-or-system: Rho-associated protein kinase 2 (Homo sapiens) (UniProt O75116)
# Sequence (O75116 whole entry, looked up): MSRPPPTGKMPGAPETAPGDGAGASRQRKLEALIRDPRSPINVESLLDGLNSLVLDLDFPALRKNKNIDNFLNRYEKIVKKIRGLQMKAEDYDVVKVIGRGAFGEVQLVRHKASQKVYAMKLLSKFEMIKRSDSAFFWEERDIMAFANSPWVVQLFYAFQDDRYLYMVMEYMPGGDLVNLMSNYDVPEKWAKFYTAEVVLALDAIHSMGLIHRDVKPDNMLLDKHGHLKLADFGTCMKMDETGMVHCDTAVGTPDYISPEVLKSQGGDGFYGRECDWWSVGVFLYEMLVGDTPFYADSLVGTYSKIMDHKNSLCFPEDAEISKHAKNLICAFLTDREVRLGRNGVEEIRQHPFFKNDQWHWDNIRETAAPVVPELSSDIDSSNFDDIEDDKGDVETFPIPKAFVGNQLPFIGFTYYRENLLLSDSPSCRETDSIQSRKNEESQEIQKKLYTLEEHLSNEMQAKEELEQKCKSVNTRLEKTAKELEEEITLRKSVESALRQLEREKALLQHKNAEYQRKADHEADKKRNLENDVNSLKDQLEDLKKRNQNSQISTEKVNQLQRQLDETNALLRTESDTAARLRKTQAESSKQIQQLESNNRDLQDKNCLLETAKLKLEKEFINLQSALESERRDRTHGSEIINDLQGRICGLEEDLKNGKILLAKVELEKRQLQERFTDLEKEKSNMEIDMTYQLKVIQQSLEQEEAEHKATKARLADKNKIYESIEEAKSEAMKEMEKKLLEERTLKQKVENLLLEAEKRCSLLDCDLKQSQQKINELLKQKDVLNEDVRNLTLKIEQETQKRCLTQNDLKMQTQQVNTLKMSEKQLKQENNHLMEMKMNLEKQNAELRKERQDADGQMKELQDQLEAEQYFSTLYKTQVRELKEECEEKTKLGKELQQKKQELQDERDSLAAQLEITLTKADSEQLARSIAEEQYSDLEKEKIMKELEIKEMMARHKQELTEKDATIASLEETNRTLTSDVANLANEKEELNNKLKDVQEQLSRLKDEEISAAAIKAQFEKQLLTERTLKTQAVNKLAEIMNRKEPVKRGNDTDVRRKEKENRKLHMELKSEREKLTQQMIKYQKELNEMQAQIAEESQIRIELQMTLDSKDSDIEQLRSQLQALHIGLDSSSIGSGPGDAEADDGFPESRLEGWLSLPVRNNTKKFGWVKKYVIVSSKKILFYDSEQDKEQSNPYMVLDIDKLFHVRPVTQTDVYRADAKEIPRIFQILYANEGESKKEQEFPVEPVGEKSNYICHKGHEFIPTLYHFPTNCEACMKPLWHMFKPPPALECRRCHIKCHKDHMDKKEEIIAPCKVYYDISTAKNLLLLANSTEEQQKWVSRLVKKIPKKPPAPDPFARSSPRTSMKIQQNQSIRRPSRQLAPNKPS
# assay-overview: Inhibition of ROCK2 at 1 uM
// reported inhibition per item

INPUT: Which inhibition reading was recorded for the compound CN1CCN(c2ccc(-c3cnc4c(c3)N(Cc3cc(Cl)ccc3C(F)(F)F)CCN4)cn2)CC1 ?
OUTPUT: < 50%

INPUT: Proceed to CN1CCN(c2ccc(-c3cnc4c(c3)N(Cc3cc(Cl)ccc3Cl)CCN4)cn2)CC1
OUTPUT: < 50%

INPUT: Quick one: CN1CCN(c2ccc(-c3cnc4c(c3)N(Cc3cc(F)ccc3F)CCN4)cn2)CC1
OUTPUT: < 50%

INPUT: Same read-out for CC(=O)N1CCN(c2cc(-c3cnc4c(c3)N(Cc3cc(Cl)ccc3C(F)(F)F)CCN4)ccn2)CC1 ?
OUTPUT: < 50%

INPUT: Try the compound CN1CCN(c2ccc(-c3cnc4c(c3)N(Cc3c(F)ccc(F)c3Cl)CCN4)cn2)CC1
OUTPUT: < 50%

INPUT: Subsequent entry: FC(F)(F)c1ccc(Cl)cc1CN1CCNc2ncc(-c3ccnc(N4CCNCC4)c3)cc21
OUTPUT: 76%

###

// reported inhibition for each item listed
# target-or-system: Casein kinase I isoform gamma-2 (Homo sapiens)
# assay-overview: Inhibition of CSNK1G2 at 1 uM

FC(F)(F)c1ccc(Cl)cc1CN1CCNc2ncc(-c3ccnc(N4CCNCC4)c3)cc21 ... < 50%

INPUT: Suppose we examine the compound CN1CCN(c2ccc(-c3cnc4c(c3)N(Cc3c(F)ccc(F)c3Cl)CCN4)cn2)CC1 ; what inhibition value has been reported?
OUTPUT: < 50%

INPUT: Same thing, different compound: CN1CCN(c2ccc(-c3cnc4c(c3)N(Cc3cc(F)ccc3F)CCN4)cn2)CC1
OUTPUT: < 50%

INPUT: Moving on to O=C(c1ccc(-c2cnc3c(c2)N(Cc2cc(Cl)ccc2C(F)(F)F)CCN3)cc1)N1CCCCC1
OUTPUT: < 50%

INPUT: Field entry: O=C(c1ccc(-c2cnc3c(c2)N(Cc2cc(Cl)ccc2C(F)(F)F)CCN3)cc1)N1CCC(N2CCCC2)CC1
OUTPUT: < 50%

###

Each entry below carries its recorded inhibition.
# Tested on: Tyrosine-protein kinase ABL1 (Homo sapiens), P00519 [E255K]
# assay-overview: Inhibition of ABL1 E255K mutant at 1 uM

Record excerpt, results attached:
FC(F)(F)c1ccc(Cl)cc1CN1CCNc2ncc(-c3ccnc(N4CCNCC4)c3)cc21 ... < 50%
CN1CCN(c2ccc(-c3cnc4c(c3)N(Cc3cc(Cl)ccc3Cl)CCN4)cn2)CC1 ... < 50%
O=C(O)c1ccc(-c2cnc3c(c2)N(Cc2cc(Cl)ccc2C(F)(F)F)CCN3)cc1 ... < 50%
CN1CCN(c2ccc(-c3cnc4c(c3)N(Cc3cc(F)ccc3F)CCN4)cn2)CC1 ... < 50%
CC(=O)N1CCN(c2cc(-c3cnc4c(c3)N(Cc3cc(Cl)ccc3C(F)(F)F)CCN4)ccn2)CC1 ... < 50%

Now for the compound whose inhibition we want.
INPUT: I am curious: what inhibition value has been reported for COC1CCN(C(=O)c2ccc(-c3cnc4c(c3)N(Cc3cc(Cl)ccc3C(F)(F)F)CCN4)cc2)CC1 ?
OUTPUT: < 50%

###

# Test system: Proto-oncogene tyrosine-protein kinase receptor Ret (Homo sapiens), P07949 [V804M]
# Sequence (P07949 whole entry V804M): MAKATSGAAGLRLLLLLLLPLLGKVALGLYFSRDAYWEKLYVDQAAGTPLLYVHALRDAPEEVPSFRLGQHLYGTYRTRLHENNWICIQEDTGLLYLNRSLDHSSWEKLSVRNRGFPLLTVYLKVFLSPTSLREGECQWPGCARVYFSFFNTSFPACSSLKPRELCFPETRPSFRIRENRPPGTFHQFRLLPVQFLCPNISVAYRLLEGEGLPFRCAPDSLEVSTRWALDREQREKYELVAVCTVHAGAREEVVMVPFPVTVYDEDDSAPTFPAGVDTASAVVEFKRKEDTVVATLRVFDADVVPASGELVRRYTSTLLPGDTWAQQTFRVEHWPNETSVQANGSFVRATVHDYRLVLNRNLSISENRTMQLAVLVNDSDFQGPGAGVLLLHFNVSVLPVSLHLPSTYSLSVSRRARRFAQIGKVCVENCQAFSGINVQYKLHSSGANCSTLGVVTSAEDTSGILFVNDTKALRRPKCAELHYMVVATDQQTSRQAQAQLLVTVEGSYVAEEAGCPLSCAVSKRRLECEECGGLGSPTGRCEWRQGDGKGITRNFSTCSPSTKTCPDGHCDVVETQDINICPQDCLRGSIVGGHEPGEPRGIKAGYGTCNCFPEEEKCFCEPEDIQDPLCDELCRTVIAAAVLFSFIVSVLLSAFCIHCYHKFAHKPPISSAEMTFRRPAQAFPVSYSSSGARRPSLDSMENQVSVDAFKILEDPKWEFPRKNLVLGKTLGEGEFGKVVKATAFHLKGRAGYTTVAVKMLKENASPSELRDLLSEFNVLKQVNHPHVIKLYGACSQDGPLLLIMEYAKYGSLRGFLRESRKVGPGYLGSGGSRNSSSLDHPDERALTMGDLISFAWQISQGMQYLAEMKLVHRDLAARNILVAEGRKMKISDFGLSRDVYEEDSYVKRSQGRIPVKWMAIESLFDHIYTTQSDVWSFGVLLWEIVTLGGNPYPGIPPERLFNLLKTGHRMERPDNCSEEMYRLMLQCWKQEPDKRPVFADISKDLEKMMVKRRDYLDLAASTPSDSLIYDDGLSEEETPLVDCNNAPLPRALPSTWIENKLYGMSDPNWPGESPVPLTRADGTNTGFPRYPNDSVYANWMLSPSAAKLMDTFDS
# assay-overview: Inhibition of RET V804M mutant at 1 uM
# Lookup of reported inhibition keyed by entry

In the examples that follow, each entry is paired with its recorded inhibition.
CC(=O)N1CCN(c2cc(-c3cnc4c(c3)N(Cc3cc(Cl)ccc3C(F)(F)F)CCN4)ccn2)CC1 ... < 50%
CN1CCN(c2ccc(-c3cnc4c(c3)N(Cc3cc(F)ccc3F)CCN4)cn2)CC1 ... < 50%
FC(F)(F)c1ccc(Cl)cc1CN1CCNc2ncc(-c3ccnc(N4CCNCC4)c3)cc21 ... 76%
CN1CCN(c2ccc(-c3cnc4c(c3)N(Cc3cc(Cl)ccc3Cl)CCN4)cn2)CC1 ... < 50%
CN1CCN(c2ccc(-c3cnc4c(c3)N(Cc3c(F)ccc(F)c3Cl)CCN4)cn2)CC1 ... < 50%

Let us examine a further case.
INPUT: Need inhibition, item CN1CCN(c2ccc(-c3cnc4c(c3)N(Cc3cc(Cl)ccc3C(F)(F)F)CCN4)cn2)CC1
OUTPUT: < 50%

###

Let's look at some compounds and their measured inhibition.
# target-or-system: Macrophage colony-stimulating factor 1 receptor (Homo sapiens) (UniProt P07333)
# Sequence (P07333 whole entry): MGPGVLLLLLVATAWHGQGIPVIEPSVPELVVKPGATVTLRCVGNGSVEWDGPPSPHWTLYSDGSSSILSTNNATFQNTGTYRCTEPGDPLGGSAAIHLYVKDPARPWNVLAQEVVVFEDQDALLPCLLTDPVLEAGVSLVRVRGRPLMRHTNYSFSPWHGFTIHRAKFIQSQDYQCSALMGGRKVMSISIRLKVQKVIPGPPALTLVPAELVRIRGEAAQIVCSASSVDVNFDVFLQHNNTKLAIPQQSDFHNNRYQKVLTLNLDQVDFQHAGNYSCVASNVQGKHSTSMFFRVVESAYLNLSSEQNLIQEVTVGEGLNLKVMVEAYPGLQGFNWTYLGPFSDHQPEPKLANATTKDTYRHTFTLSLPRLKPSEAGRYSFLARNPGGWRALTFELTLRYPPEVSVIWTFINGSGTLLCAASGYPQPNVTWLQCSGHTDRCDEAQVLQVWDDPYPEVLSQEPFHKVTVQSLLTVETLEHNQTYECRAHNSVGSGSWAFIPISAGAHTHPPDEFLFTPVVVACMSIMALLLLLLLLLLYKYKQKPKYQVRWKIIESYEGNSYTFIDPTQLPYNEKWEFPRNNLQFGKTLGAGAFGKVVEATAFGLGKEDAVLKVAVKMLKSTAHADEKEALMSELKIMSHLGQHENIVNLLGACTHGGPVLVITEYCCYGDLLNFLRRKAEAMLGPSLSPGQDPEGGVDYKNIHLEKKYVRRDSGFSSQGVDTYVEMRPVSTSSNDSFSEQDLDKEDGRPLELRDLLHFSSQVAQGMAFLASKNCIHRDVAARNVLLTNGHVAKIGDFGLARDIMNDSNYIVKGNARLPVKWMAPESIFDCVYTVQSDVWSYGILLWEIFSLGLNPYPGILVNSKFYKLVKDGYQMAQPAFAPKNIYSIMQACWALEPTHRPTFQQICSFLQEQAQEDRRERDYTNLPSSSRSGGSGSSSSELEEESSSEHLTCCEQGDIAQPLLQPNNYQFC
# assay-overview: Inhibition of CSF1R at 1 uM
// units = %; emit number, no label

INPUT: I have this compound here, CN1CCN(c2ccc(-c3cnc4c(c3)N(Cc3cc(Cl)ccc3C(F)(F)F)CCN4)cn2)CC1 , and I need its recorded inhibition.
OUTPUT: 88

INPUT: Next compound up: FC(F)(F)c1ccc(Cl)cc1CN1CCNc2ncc(-c3ccnc(N4CCNCC4)c3)cc21
OUTPUT: 99

INPUT: Now the same for CN1CCN(c2ccc(-c3cnc4c(c3)N(Cc3cc(Cl)ccc3Cl)CCN4)cn2)CC1
OUTPUT: 88

INPUT: Entry to check: CC(=O)N1CCN(c2cc(-c3cnc4c(c3)N(Cc3cc(Cl)ccc3C(F)(F)F)CCN4)ccn2)CC1
OUTPUT: 93
